target: Carbonic anhydrase 9 (Homo sapiens, UniProt Q16790); assay: Inhibition of human recombinant carbonic anhydrase 9 after 15 mins by stopped flow CO2 hydration assay
Collected Ki values appear next to each entry.
endpoint_name: Ki

> print(dat)
                           smiles.structure  result.value
1  Nc1nc(N)c2nc(CNCCc3ccc(S(=O)(=O)O)cc3)cnc2n1     > 1000 nM
2  Nc1nc(N)c2nc(CNc3ccc(C(=O)NCCc4ccc(S(=O)(=O)O)cc4)cc3)cnc2n1     > 1000 nM
3  Nc1nc(N)c2nc(CNc3ccc(S(=O)(=O)O)cc3)cnc2n1     > 1000 nM
